Just for reference, ChEMBL document CHEMBL5291721 is where these values come from.

# TARGET_ENTITY: Equilibrative nucleoside transporter 1 (Homo sapiens, UniProt Q99808); note: assay procedure not described here
# Sequence (Q99808 whole entry): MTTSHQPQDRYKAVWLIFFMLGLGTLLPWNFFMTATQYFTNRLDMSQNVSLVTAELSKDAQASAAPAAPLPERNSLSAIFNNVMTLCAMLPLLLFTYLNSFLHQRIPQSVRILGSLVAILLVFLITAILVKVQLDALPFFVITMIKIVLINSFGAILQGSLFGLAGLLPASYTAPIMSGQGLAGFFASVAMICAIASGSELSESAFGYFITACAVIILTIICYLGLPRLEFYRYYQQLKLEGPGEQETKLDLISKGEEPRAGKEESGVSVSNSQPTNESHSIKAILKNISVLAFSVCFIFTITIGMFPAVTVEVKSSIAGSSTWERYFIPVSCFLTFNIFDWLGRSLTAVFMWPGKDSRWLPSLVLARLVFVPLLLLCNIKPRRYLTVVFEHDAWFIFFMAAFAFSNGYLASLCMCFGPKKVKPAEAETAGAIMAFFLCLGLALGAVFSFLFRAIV
ENDPOINT_NAME: AC50

CCC(NC(C)C)C(O)c1ccc(O)c(O)c1 (stereo unspecified) on Equilibrative nucleoside transporter 1 (Homo sapiens, UniProt Q99808) gives AC50 = > 30 µM

Simply: OCC(O)COc1ccc(Cl)cc1 (stereo unspecified) , Equilibrative nucleoside transporter 1 (Homo sapiens, UniProt Q99808), AC50 = > 10 µM

GET /values?item= Cc1cccc(Nc2ccncc2S(=O)(=O)NC(=O)NC(C)C)c1 [TORSEMIDE] &system= Equilibrative nucleoside transporter 1 (Homo sapiens, UniProt Q99808) returns AC50: > 10 µM

// compound CN(C)CCOC(c1ccc(Cl)cc1)c1ccccn1 (stereo unspecified) , assay Equilibrative nucleoside transporter 1 (Homo sapiens, UniProt Q99808), AC50 value: > 30 µM

For the compound CCN(C(C)=O)c1cccc(-c2ccnc3c(C#N)cnn23)c1 , the measured AC50 on Equilibrative nucleoside transporter 1 (Homo sapiens, UniProt Q99808) was > 30 µM

Per the reported Equilibrative nucleoside transporter 1 (Homo sapiens, UniProt Q99808) data, CCCCOC(=O)c1ccc(N)cc1 has AC50 of > 30 µM
